protocol text: chemical genetic growth profiling, strain panel (AID 1159580);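 note: tested at 20 µM; growth read once vehicle control cultures reached saturation at 30 °C; 1 = growth at the plate median or of vehicle wells; lower values mean less growth of the strain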
applied conditions: S. cerevisiae deletion strains, growth OD, locus YDR226W, strain ADK1, hits give low values
Out of some 5,500 compounds screened, about 2,000 (36%) were called active. Inconclusive results (about 18%) are left out. This is one part of the list.
The entries below are paired with their reported normalized growth.
endpoint: normalized growth

> print(dat)
                                    compound           endpoint  test.value
 1  COCCOc1ccccc1NC(=S)SCCSC(=S)Nc1ccccc1OCCOC  normalized growth       0.969
 2            N=C(N)SCc1nc(-c2ccc(Cl)cc2)no1  normalized growth       0.978
 3  COc1cc(Cl)c(NS(=O)(=O)c2cc(Br)c(Br)s2)c(OC)c1  normalized growth       0.962
 4        O=C(CCSc1cccs1)Nc1cccc(C(F)(F)F)c1  normalized growth        0.93
 5       CCOC(=O)NC(=S)NC12CC3CC(CC(C3)C1)C2  normalized growth       0.975
 6    N/C(=N/OC(=O)c1ccc(Cl)cc1)c1ccc(F)cc1F  normalized growth       0.899
 7  CCC1CCC(C)N(C(=S)Nc2ccc(Br)cc2C)C1 (stereo not given)  normalized growth       0.963
 8  Cc1cc(C(=O)O/N=C(/N)c2ccc(C(C)(C)C)cc2)no1  normalized growth       0.983
 9  CC1(C)C/C(=N/Nc2ccc(C(F)(F)F)cc2)c2cc(C(C)(C)C)c(O)c(O)c2O1  normalized growth       0.988
10  CC(C)(O)C#Cc1ccc(/C=N\Nc2c(Cl)cc(Cl)cc2Cl)cc1  normalized growth       0.978
11  CCCC1c2ccsc2CCN1C(=S)Nc1ccc(Cl)cc1Cl (stereo not given)  normalized growth       0.968
12  COc1cc(C(=O)Oc2c(Cl)cc(Cl)cc2C=Nc2cccc(C(F)(F)F)c2)cc(OC)c1OC  normalized growth       0.965
13  C/C(=N/OC(=O)Nc1ccc(Cl)cc1)c1ccc2c(c1)CCO2  normalized growth       0.949
14             CC(=O)C(Sc1nc2ccccc2s1)C(C)=O  normalized growth       0.937
15            NC(=NC(=O)c1ccc(Cl)cc1)c1cccs1  normalized growth       0.951
16  O=C(Nc1ccccn1)c1cc(-c2ccccc2)c(C(F)(F)F)s1  normalized growth       0.965
17        O=C1/C(=C/c2c(F)cccc2Cl)Cc2ccccc21  normalized growth       0.967
18  CSc1c(C#N)c(-c2ccc(Cl)cc2)nn1C(=O)c1ccccc1Cl  normalized growth       0.933
19  CCCCCCCC1CCC/C1=N/OC(=O)c1cccs1 (stereo not given)  normalized growth       0.996
20  COc1cc(N=Cc2cc(Cl)cc(Cl)c2OS(=O)(=O)c2ccc(C)cc2)c(OC)cc1Cl  normalized growth       0.946
21  COc1cc(N=Cc2cc(Cl)cc(Cl)c2OC(=O)c2cc(OC)c(OC)c(OC)c2)c(OC)cc1Cl  normalized growth       0.947
22       CC(C)(O)C#Cc1ccc(/C=N\Nc2ccccc2)cc1  normalized growth       0.968
23      O=C(Nc1ccc(Cl)cc1Cl)c1cnccc1C(F)(F)F  normalized growth       0.976
24  Cc1onc(-c2ccccc2Cl)c1-c1nc2ccccc2c(=O)o1  normalized growth        0.97
25    O=C(Nc1cccc(C(F)(F)F)c1)Oc1ccc(F)cc1Cl  normalized growth       0.975

Value source: PubChem BioAssay AID1159580
